Origin of the recorded values: ChEMBL document CHEMBL3864191

Target or system Apoptosis regulator Bcl-2 (Homo sapiens, UniProt P10415): recorded IC50 listed per item.

| compound | IC50 |
| --- | --- |
| COC(=O)CCCCCN/C=C1\C(=O)C(O)=C(C(C)C)c2cc(C)c(-c3c(C)cc4c(c3O)/C(=C/NCCCCCC(=O)OC)C(=O)C(O)=C4C(C)C)c(O)c21 | 840 nM |
| COC(=O)CCCN/C=C1\C(=O)C(O)=C(C(C)C)c2cc(C)c(-c3c(C)cc4c(c3O)/C(=C/NCCCC(=O)OC)C(=O)C(O)=C4C(C)C)c(O)c21 (stereo in doubt; (+)-16) | 452 nM |
| COC(=O)CN/C=C1\C(=O)C(O)=C(C(C)C)c2cc(C)c(-c3c(C)cc4c(c3O)/C(=C/NCC(=O)OC)C(=O)C(O)=C4C(C)C)c(O)c21 | 103 nM |
| Cc1cc2c(c(O)c1-c1c(C)cc3c(c1O)/C(=C/NCCCC(=O)O)C(=O)C(O)=C3C(C)C)/C(=C/NCCCC(=O)O)C(=O)C(O)=C2C(C)C | 596 nM |
| COC(=O)CCCN/C=C1\C(=O)C(O)=C(C(C)C)c2cc(C)c(-c3c(C)cc4c(c3O)/C(=C/NCCCC(=O)OC)C(=O)C(O)=C4C(C)C)c(O)c21 (stereo in doubt; (-)-16) | 375 nM |
| COC(=O)CCCCN/C=C1\C(=O)C(O)=C(C(C)C)c2cc(C)c(-c3c(C)cc4c(c3O)/C(=C/NCCCCC(=O)OC)C(=O)C(O)=C4C(C)C)c(O)c21 | 483 nM |
| COC(=O)CCN/C=C1\C(=O)C(O)=C(C(C)C)c2cc(C)c(-c3c(C)cc4c(c3O)/C(=C/NCCC(=O)OC)C(=O)C(O)=C4C(C)C)c(O)c21 | 286 nM |

* * *

- protocol-text: Cytotoxicity against human leukemia cells assessed as cell growth inhibition after 48 hrs by SRB assay
- Type: functional
Param label: returns satisfied when GI50 < 2000 nM, returns not satisfied otherwise, including exact equality.

| molecule | group-label |
| --- | --- |
| COC(=O)CCCN/C=C1\C(=O)C(O)=C(C(C)C)c2cc(C)c(-c3c(C)cc4c(c3O)/C(=C/NCCCC(=O)OC)C(=O)C(O)=C4C(C)C)c(O)c21 (stereo in doubt; 16) | satisfied |
| COC(=O)CCCCN/C=C1\C(=O)C(O)=C(C(C)C)c2cc(C)c(-c3c(C)cc4c(c3O)/C(=C/NCCCCC(=O)OC)C(=O)C(O)=C4C(C)C)c(O)c21 | satisfied |
| COC(=O)CN/C=C1\C(=O)C(O)=C(C(C)C)c2cc(C)c(-c3c(C)cc4c(c3O)/C(=C/NCC(=O)OC)C(=O)C(O)=C4C(C)C)c(O)c21 | satisfied |
| Cc1cc2c(C(C)C)c(O)c(O)c(C=O)c2c(O)c1-c1c(C)cc2c(C(C)C)c(O)c(O)c(C=O)c2c1O | not satisfied |
| CC1(C)CCC(CN2CCN(c3ccc(C(=O)NS(=O)(=O)c4ccc(NCC5CCOCC5)c([N+](=O)[O-])c4)c(Oc4cnc5[nH]ccc5c4)c3)CC2)=C(c2ccc(Cl)cc2)C1 | not satisfied |
| COC(=O)CCCCCN/C=C1\C(=O)C(O)=C(C(C)C)c2cc(C)c(-c3c(C)cc4c(c3O)/C(=C/NCCCCCC(=O)OC)C(=O)C(O)=C4C(C)C)c(O)c21 | satisfied |

* * *

- protocol-text: cells
- run-parameters: Homo sapiens, HCT-116, 72 h
- Description: Cytotoxicity against human HCT116 cells assessed as reduction in cell viability after 72 hrs by MTT assay
pIC50: −log10 of the molar value.

| structure-notation | qualifier-sign | pIC50 |
| --- | --- | --- |
| COC(=O)CCN/C=C1\C(=O)C(O)=C(C(C)C)c2cc(C)c(-c3c(C)cc4c(c3O)/C(=C/NCCC(=O)OC)C(=O)C(O)=C4C(C)C)c(O)c21 | = | 5.28 |
| COC(=O)[C@@H](N/C=C1\C(=O)C(O)=C(C(C)C)c2cc(C)c(-c3c(C)cc4c(c3O)/C(=C/N[C@H](C(=O)OC)C(C)C)C(=O)C(O)=C4C(C)C)c(O)c21)C(C)C | = | 4.11 |
| Cc1cc2c(c(O)c1-c1c(C)cc3c(c1O)/C(=C/NCc1ccc4c(c1)OCO4)C(=O)C(O)=C3C(C)C)/C(=C/NCc1ccc3c(c1)OCO3)C(=O)C(O)=C2C(C)C | = | 5.08 |
| Cc1cc2c(c(O)c1-c1c(C)cc3c(c1O)/C(=C/NC(C)(C)C)C(=O)C(O)=C3C(C)C)/C(=C/NC(C)(C)C)C(=O)C(O)=C2C(C)C | < | 4.00 |

* * *

- protocol-text: cells
- run-parameters: Homo sapiens, HCT-116, 72 h
pIC50: −log10 of the molar value.
Classification field: enter Criterion met for pIC50 values not below 5, Criterion not met for values below it.

| compound | group-label |
| --- | --- |
| Cc1cc2c(c(O)c1-c1c(C)cc3c(c1O)/C(=C/NCCCC(=O)O)C(=O)C(O)=C3C(C)C)/C(=C/NCCCC(=O)O)C(=O)C(O)=C2C(C)C | Criterion not met |
| Cc1cc2c(c(O)c1-c1c(C)cc3c(c1O)/C(=C/NCCC(=O)O)C(=O)C(O)=C3C(C)C)/C(=C/NCCC(=O)O)C(=O)C(O)=C2C(C)C | Criterion not met |
| COC(=O)CCCCN/C=C1\C(=O)C(O)=C(C(C)C)c2cc(C)c(-c3c(C)cc4c(c3O)/C(=C/NCCCCC(=O)OC)C(=O)C(O)=C4C(C)C)c(O)c21 | Criterion met |
| Cc1cc2c(c(O)c1-c1c(C)cc3c(c1O)/C(=C/Nc1ccc(C(C)(C)C)cc1)C(=O)C(O)=C3C(C)C)/C(=C/Nc1ccc(C(C)(C)C)cc1)C(=O)C(O)=C2C(C)C | Criterion not met |
| Cc1cc2c(c(O)c1-c1c(C)cc3c(c1O)/C(=C/NCCS(=O)(=O)O)C(=O)C(O)=C3C(C)C)/C(=C/NCCS(=O)(=O)O)C(=O)C(O)=C2C(C)C | Criterion not met |
| Cc1cc2c(c(O)c1-c1c(C)cc3c(c1O)/C(=C/NCc1ccccc1)C(=O)C(O)=C3C(C)C)/C(=C/NCc1ccccc1)C(=O)C(O)=C2C(C)C | Criterion not met |
| Cc1cc2c(c(O)c1-c1c(C)cc3c(c1O)/C(=C/NCc1ccco1)C(=O)C(O)=C3C(C)C)/C(=C/NCc1ccco1)C(=O)C(O)=C2C(C)C | Criterion not met |
| Cc1cc2c(C(C)C)c(O)c(O)c(C=O)c2c(O)c1-c1c(C)cc2c(C(C)C)c(O)c(O)c(C=O)c2c1O [GOSSYPOL] | Criterion met |
| COC(=O)[C@H](CCSC)N/C=C1\C(=O)C(O)=C(C(C)C)c2cc(C)c(-c3c(C)cc4c(c3O)/C(=C/N[C@@H](CCSC)C(=O)OC)C(=O)C(O)=C4C(C)C)c(O)c21 | Criterion met |
| Cc1cc2c(c(O)c1-c1c(C)cc3c(c1O)/C(=C/NCCCCCCC(=O)O)C(=O)C(O)=C3C(C)C)/C(=C/NCCCCCCC(=O)O)C(=O)C(O)=C2C(C)C | Criterion not met |
| Cc1cc2c(c(O)c1-c1c(C)cc3c(c1O)/C(=C/NC1CCCCC1)C(=O)C(O)=C3C(C)C)/C(=C/NC1CCCCC1)C(=O)C(O)=C2C(C)C | Criterion not met |

* * *

- protocol-text: Cytotoxicity against human DU145 cells assessed as reduction in cell viability after 72 hrs by MTT assay
- Type: functional, cell-based, DU-145
- run-parameters: Homo sapiens, DU-145, 72 h
IC50 values, listed per item
quantity-name: IC50 (µM)

| structure-notation | measurement-units | qualifier-sign | observed-measurement |
| --- | --- | --- | --- |
| COC(=O)c1ccccc1N/C=C1\C(=O)C(O)=C(C(C)C)c2cc(C)c(-c3c(C)cc4c(c3O)/C(=C/Nc3ccccc3C(=O)OC)C(=O)C(O)=C4C(C)C)c(O)c21 | µM | = | 20.9 |
| COC(=O)CCN/C=C1\C(=O)C(O)=C(C(C)C)c2cc(C)c(-c3c(C)cc4c(c3O)/C(=C/NCCC(=O)OC)C(=O)C(O)=C4C(C)C)c(O)c21 | µM | = | 9.47 |
| Cc1cc2c(c(O)c1-c1c(C)cc3c(c1O)/C(=C/NCc1ccco1)C(=O)C(O)=C3C(C)C)/C(=C/NCc1ccco1)C(=O)C(O)=C2C(C)C | µM | = | 15.5 |
| Cc1cc2c(c(O)c1-c1c(C)cc3c(c1O)/C(=C/N[C@H]1C[C@@H]4C[C@H]([C@@H]1C)C4(C)C)C(=O)C(O)=C3C(C)C)/C(=C/N[C@H]1C[C@@H]3C[C@H]([C@@H]1C)C3(C)C)C(=O)C(O)=C2C(C)C | µM | > | 100 |
| Cc1cc2c(c(O)c1-c1c(C)cc3c(c1O)/C(=C/NCC(=O)O)C(=O)C(O)=C3C(C)C)/C(=C/NCC(=O)O)C(=O)C(O)=C2C(C)C | µM | = | 34.8 |
